Target Desc: AMP-activated protein kinase, AMPK (Homo sapiens) (UniProt P54646+O43741+P54619+Q9UGJ0+Q9Y478+Q13131+Q9UGI9)
Experiment Description: AMP-dependent Kinase enzyme assay. An in vitro enzyme assay that detects ADP turnover that is directly proportional to AMPK activity. This uses naive AMPK that is activated during the assay with MK-8722
Assay type: functional
Set-up: scale not given: direction of the effect not stated beside the values
Condition Label: 30 µM
Kindly supply the reported Percent Effect values for the records listed here.
One number for each entry, in %.

>  <Molecule>
Cc1ccc(C(=O)N2CCN(C(=O)NC(C)Cn3ccnc3)CC2)o1 (configuration not stated)

>  <Unit Descriptor>
%

>  <Percent Effect>
2.03

$$$$
>  <Molecule>
O=C(c1cccc2c1OCCO2)N1CCCC(n2ccnc2)C1 (configuration not stated)

>  <Unit Descriptor>
%

>  <Percent Effect>
2.73

$$$$
>  <Molecule>
CCn1nc(C)c(CNC(=O)c2cn(CCC3CCCCN3)nn2)c1C (configuration not stated)

>  <Unit Descriptor>
%

>  <Percent Effect>
0.29

$$$$
>  <Molecule>
Cc1cnn(CCC(=O)N2C[C@H]3CC[C@@H]2CN(CC(=O)N(C)C)C3)c1

>  <Unit Descriptor>
%

>  <Percent Effect>
-6.36

$$$$
>  <Molecule>
O=C(Cn1cnnn1)N1CCCCC1Cn1cccn1 (configuration not stated)

>  <Unit Descriptor>
%

>  <Percent Effect>
-3.21

$$$$
>  <Molecule>
CNC(=O)NC(=O)CN1CCC(c2cccc(F)c2)C1 (configuration not stated)

>  <Unit Descriptor>
%

>  <Percent Effect>
5.35

$$$$

### Prompt What does the record list as Percent Effect for COCCc1noc(CN2CCc3nn(C(C)C)c(=O)cc3C2)n1 ?
### Response -7.36

---

Target Desc: Arginase-2, mitochondrial (Homo sapiens) (UniProt P78540)
Sequence (P78540 whole entry): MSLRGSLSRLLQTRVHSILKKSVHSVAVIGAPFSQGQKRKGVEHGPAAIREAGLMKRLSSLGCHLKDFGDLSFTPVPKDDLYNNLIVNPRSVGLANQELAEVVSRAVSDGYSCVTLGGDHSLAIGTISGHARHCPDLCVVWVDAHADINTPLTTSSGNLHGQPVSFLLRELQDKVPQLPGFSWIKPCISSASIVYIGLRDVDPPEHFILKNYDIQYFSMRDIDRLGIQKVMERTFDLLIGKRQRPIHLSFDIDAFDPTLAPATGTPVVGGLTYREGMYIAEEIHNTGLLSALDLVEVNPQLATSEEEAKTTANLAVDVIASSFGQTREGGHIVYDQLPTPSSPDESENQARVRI
Experiment Description: in vitro enzyme assay to detect the production of urea directly proportional to the activity of Arginase II; further: in the data most compounds retested in dose-response had high values
Format: functional
Set-up: scale not given: direction of the effect not stated beside the values
Condition Label: 33.3 µM
Reported Property: Percent Effect (%)
Numbers only, in %.

Look over these answered cases.
>  <Molecule>
Cc1nnc2n1CCN(C(=O)COCCOc1ccccc1)C2

>  <Reported Property>
Percent Effect

>  <Unit Descriptor>
%

>  <Reported Value>
4.95

$$$$
>  <Molecule>
CCC1CN(C(=O)Nc2cnc3c(cnn3C(C)C)c2)CCO1 (stereo unspecified)

>  <Reported Property>
Percent Effect

>  <Unit Descriptor>
%

>  <Reported Value>
0.554

$$$$
>  <Molecule>
COCC1c2c(cnn2CC2CCOCC2)CCN1Cc1ccoc1 (stereo unspecified)

>  <Reported Property>
Percent Effect

>  <Unit Descriptor>
%

>  <Reported Value>
4.17

$$$$
>  <Molecule>
Cc1noc([C@H]2C[C@H]3OCC[C@H]3N(S(=O)(=O)C3CC3)C2)n1

>  <Reported Property>
Percent Effect

>  <Unit Descriptor>
%

>  <Reported Value>
-1.6

$$$$

Dear colleague, could you send me Percent Effect for each of the items below? Thanks.
1. Cc1ccccc1C1(CNC(=O)NCCc2nnc3n2CCC3)CC1
2. Cc1c(I)cccc1C(=O)NCC1(CO)CC1
3. CC(NC(=O)NCCCN(C)S(C)(=O)=O)c1ccncc1 (stereo unspecified)
4. O=C([C@@H]1C[C@@H]2CCN(CCc3ccccc3)C[C@H]2O1)N1CCCC1
5. Cc1nc(C)n(CC2CCCN(CCc3ccncc3)C2)n1 (stereo unspecified)
6. CCn1c(CN(C)C)nnc1C1CCN(Cc2cccc(OC)c2)CC1

### Response
-2.37
0.952
5.38
8.62
1.36
-12.4

### Prompt Given the entry CCCc1noc(CCC(=O)N2CCCC2c2noc(C3CC3)n2)n1 (stereo unspecified) , what Percent Effect was observed with Arginase-2, mitochondrial (Homo sapiens) (UniProt P78540)?
### Response 1.52

---

Target Desc: Protein translocase subunit SecA (Escherichia coli (strain K12)) (UniProt P10408)
Sequence (P10408 whole entry): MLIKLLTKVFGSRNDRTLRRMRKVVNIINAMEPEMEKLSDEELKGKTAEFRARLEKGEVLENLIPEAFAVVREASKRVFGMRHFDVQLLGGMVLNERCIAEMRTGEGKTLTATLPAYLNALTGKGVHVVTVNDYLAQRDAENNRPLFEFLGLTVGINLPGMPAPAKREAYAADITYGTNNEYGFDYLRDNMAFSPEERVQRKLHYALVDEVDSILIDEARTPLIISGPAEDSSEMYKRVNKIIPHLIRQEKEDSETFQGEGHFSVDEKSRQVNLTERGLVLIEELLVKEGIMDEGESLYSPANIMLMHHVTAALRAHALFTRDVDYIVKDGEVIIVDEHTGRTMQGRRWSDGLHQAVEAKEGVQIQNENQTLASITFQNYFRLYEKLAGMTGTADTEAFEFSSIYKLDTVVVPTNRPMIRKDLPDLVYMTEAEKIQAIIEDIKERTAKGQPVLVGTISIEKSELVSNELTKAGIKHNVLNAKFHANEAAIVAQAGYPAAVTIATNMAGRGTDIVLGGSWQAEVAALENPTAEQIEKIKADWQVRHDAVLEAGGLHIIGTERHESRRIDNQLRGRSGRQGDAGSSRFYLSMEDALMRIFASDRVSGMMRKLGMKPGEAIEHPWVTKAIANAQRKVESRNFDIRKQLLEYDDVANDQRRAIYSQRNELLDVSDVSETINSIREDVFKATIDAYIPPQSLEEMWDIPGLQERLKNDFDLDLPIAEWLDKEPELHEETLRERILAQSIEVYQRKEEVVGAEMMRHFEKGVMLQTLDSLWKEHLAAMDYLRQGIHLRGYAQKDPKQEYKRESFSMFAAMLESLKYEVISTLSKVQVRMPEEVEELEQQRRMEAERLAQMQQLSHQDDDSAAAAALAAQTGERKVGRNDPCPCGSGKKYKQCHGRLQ
Experiment Description: Assay to Identify E. coli SecA ATPase Inhibitors
Format: functional
Design: scale not given: direction of the effect not stated beside the values
Condition Label: 30 µM
Measured potencies and affinities stand elsewhere.
Kindly supply the reported Percent Effect values for the records listed here.
Answers are plain numbers, in %.

>  <Compound>
CC(C(N)=O)N(C)CCCc1cc(-c2ccccc2)no1 (centres undefined)

>  <Target Desc>
Protein translocase subunit SecA (Escherichia coli (strain K12)) (UniProt P10408)

>  <Reported Property>
Percent Effect

>  <Reported Value>
-2.48

$$$$
>  <Compound>
CN(CCCc1ccccc1)Cc1nc2c(cnn2C)c(=O)[nH]1

>  <Target Desc>
Protein translocase subunit SecA (Escherichia coli (strain K12)) (UniProt P10408)

>  <Reported Property>
Percent Effect

>  <Reported Value>
-1.94

$$$$
>  <Compound>
CCNS(=O)(=O)c1ccc(C)c(C(=O)N(C)Cc2ccco2)c1

>  <Target Desc>
Protein translocase subunit SecA (Escherichia coli (strain K12)) (UniProt P10408)

>  <Reported Property>
Percent Effect

>  <Reported Value>
-2.78

$$$$
>  <Compound>
CCN1CCCC1CN(CCN(C)C)S(=O)(=O)c1cccc(C#N)c1 (centres undefined)

>  <Target Desc>
Protein translocase subunit SecA (Escherichia coli (strain K12)) (UniProt P10408)

>  <Reported Property>
Percent Effect

>  <Reported Value>
-5.4

$$$$
>  <Compound>
CCCn1nc2c(cc1=O)CN(Cc1cc(C)on1)CC2

>  <Target Desc>
Protein translocase subunit SecA (Escherichia coli (strain K12)) (UniProt P10408)

>  <Reported Property>
Percent Effect

>  <Reported Value>
-5.31

$$$$

Dear colleague, could you send me Percent Effect for each of the items below? Thanks.
1. CN(C)c1nccc(N2CCO[C@H]3CN(CC4CCOCC4)C[C@H]32)n1
2. Cc1nnc([C@@H]2CC[C@@H]3[C@@H](CCN3S(=O)(=O)c3cccnc3)O2)o1
3. O=C(CN1CCC(c2ccnn2CCO)CC1)NCc1cccs1
4. Cc1cn(-c2ccccc2)nc1NS(=O)(=O)c1cccc(C(=O)O)c1
5. Cc1ccc(OCCNC(=O)C(C)n2cncn2)cc1 (centres undefined)
6. Cc1nc(C2CCCN(C(=O)c3sccc3C3CC3)C2)no1 (centres undefined)

### Response
1: 1.86; 2: -6.5; 3: -3.33; 4: -4.24; 5: -1.61; 6: -1.32

---

Species: Homo sapiens
Experiment Description: To identify inhibition of the IFN signalling (Jak-Stat) pathway via expression of an eGFP reporter gene under the control of an IFN-stimulated response element (ISRE) containing MxA promoter.
Assay type: functional
Set-up: scale not given: direction of the effect not stated beside the values
Condition Label: 30 µM
Reported Property: Percent Effect (%)
Answers are plain numbers, in %.

>  <Compound>
Cc1cc(N(C)Cc2cc(C)on2)n2nc(C)c(C)c2n1

>  <Percent Effect, %>
10.3

$$$$

Dear colleague, could you send me Percent Effect for each of the items below? Thanks.
1. COc1ccc(C(O)CNc2c(C#N)c(=O)n(C)c(=O)n2C)cc1 (centres undefined)
2. O=S(=O)(N1CCCCC1)N1CCc2nc(C3CCNCC3)ncc2C1
3. NC(=O)C1CCCN(C(=O)c2cnc3c(cnn3C3CCCC3)c2)C1 (centres undefined)

### Response
[9.61, 5.01, 19.3]

---

Target Desc: AMP-activated protein kinase, AMPK (Homo sapiens) (UniProt P54646+O43741+P54619+Q9UGJ0+Q9Y478+Q13131+Q9UGI9)
Experiment Description: AMP-dependent Kinase enzyme assay. An in vitro enzyme assay that detects ADP turnover that is directly proportional to AMPK activity. This uses naive AMPK that is activated during the assay with MK-8722
Type: functional
Set-up: scale not given: direction of the effect not stated beside the values
Condition Label: 30 µM
Reported Property: Percent Effect (%)
One number for each entry, in %.

Look over these answered cases.
>  <Compound>
OCCOCCN1CCCC1c1nc2cc(F)ccc2[nH]1 (stereo not drawn)

>  <Percent Effect (%)>
-1.73

$$$$
>  <Compound>
CCc1noc(C2CCCCN2C(=O)c2nnc3ccccc3n2)n1 (stereo not drawn)

>  <Percent Effect (%)>
-3.18

$$$$
>  <Compound>
O=C(c1cccs1)N1CCC(Cn2nc(-c3ccco3)ccc2=O)CC1

>  <Percent Effect (%)>
15.8

$$$$
>  <Compound>
COc1cc(C)sc1C(=O)N1CC(c2cccnc2)C1

>  <Percent Effect (%)>
4.4

$$$$
>  <Compound>
CC(NC(=O)COc1nc(C(C)(C)C)no1)c1ccco1 (stereo not drawn)

>  <Percent Effect (%)>
5.6

$$$$

Dear colleague, could you send me Percent Effect for each of the items below? Thanks.
1. CN(C)c1ncnc2c1CCN(CC1CCCC1)CC2
2. Cc1ccc(C)c(NC(=O)N(C)Cc2cnn(C)c2)c1

### Response
1: 5.95; 2: -1.59
